IC50 values for the compounds below.
Biological target: Prostaglandin G/H synthase 2 (Homo sapiens, UniProt P35354)
Sequence (P35354 whole entry): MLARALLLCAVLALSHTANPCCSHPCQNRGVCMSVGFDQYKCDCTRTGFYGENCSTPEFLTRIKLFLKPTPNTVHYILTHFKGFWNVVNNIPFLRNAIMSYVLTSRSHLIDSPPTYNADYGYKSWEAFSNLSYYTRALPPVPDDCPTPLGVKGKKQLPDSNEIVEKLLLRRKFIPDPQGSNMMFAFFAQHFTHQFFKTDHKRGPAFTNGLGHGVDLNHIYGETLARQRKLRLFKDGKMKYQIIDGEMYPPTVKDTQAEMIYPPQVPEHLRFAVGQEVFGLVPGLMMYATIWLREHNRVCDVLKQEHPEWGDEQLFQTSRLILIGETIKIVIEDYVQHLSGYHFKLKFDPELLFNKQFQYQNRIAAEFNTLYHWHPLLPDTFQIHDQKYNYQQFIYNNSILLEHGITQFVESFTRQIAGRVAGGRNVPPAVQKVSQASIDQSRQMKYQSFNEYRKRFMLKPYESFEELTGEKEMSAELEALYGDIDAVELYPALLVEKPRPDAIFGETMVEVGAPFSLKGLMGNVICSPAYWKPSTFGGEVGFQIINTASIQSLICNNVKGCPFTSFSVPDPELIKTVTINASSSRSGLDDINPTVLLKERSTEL
Assay: Inhibition of purified COX2 assessed as formation of oxidized TMPD during reduction og PGG2 to PGH2 preincubated for 15 mins by chromogenic assay

smiles: CS(=O)(=O)c1cccc(Oc2ccc(OCCN3CCCC3)cc2)c1
IC50: > 100 µM

smiles: O=[N+]([O-])c1ccc(Oc2ccc(OCCN3CCCC3)cc2)cc1
IC50: 35.3 µM

smiles: Clc1ccc(Oc2ccc(OCCN3CCCC3)cc2)cc1
IC50: > 100 µM

smiles: FC(F)(F)c1cccc(Oc2ccc(OCCN3CCCC3)cc2)c1
IC50: > 100 µM

smiles: c1cnc(Oc2ccc(OCCN3CCCC3)cc2)cn1
IC50: 61.6 µM

smiles: FC(F)(F)c1ccccc1Oc1ccc(OCCN2CCCC2)cc1
IC50: 41.4 µM

smiles: CS(=O)(=O)N(c1cccc(Oc2ccc(OCCN3CCCC3)cc2)c1)S(C)(=O)=O
IC50: > 100 µM

smiles: Brc1ccc(Oc2ccc(OCCN3CCCC3)cc2)cc1
IC50: > 100 µM

smiles: c1ccc(Oc2ccc(OCCN3CCCC3)cc2)cc1
IC50: > 100 µM

smiles: O=[N+]([O-])c1cccnc1Oc1ccc(OCCN2CCCC2)cc1
IC50: > 100 µM

smiles: CS(=O)(=O)c1ccc(Oc2ccc(OCCN3CCCC3)cc2)cc1
IC50: > 100 µM

smiles: Fc1ccc(Oc2ccc(OCCN3CCCC3)cc2)cc1
IC50: > 100 µM

smiles: O=[N+]([O-])c1cccc(Oc2ccc(OCCN3CCCC3)cc2)c1
IC50: > 100 µM

smiles: O=[N+]([O-])c1ccccc1Oc1ccc(OCCN2CCCC2)cc1
IC50: 7.7 µM

smiles: c1ccc(Oc2ccc(OCCN3CCCC3)cc2)nc1
IC50: 34.4 µM

smiles: Nc1ccc(Oc2ccc(OCCN3CCCC3)cc2)cc1
IC50: 36.3 µM

smiles: Nc1ccccc1Oc1ccc(OCCN2CCCC2)cc1
IC50: > 100 µM
